# System: A-375
# run.description: Cytotoxicity against human A375 cells assessed as reduction in cell viability by MTS assay
# Assay type: functional, cell-based
pIC50: −log10 of the molar value.
readout.name: pIC50

Provide measured pIC50 value, entry: C=C1CCC(c2coc(/C=C(\C)C(N)=O)c2)CC1
< 4.30

The measured values listed here are drawn from ChEMBL document CHEMBL3580581.
